Reference source: ChEMBL document CHEMBL4513216

Would you mind telling me the reported INHIBITION of each entry?
Test system: Plasmodium berghei
TEST METHOD NOTES: Screen against P. berghei liver stage (PbLuc), transformed with Luciferase, at 10uM
Format: functional, HepG2
CONDITION DETAILS: tested at 10 uM
Hit rate of the full screen: of about 69,000 compounds, about 8,600 (12%) showed an effect of 50% or more. What follows is part of a selection rich in strong results, with near analogues and random picks from the rest.
One number for each entry, in %.

Example entries begin here.
{"COMPOUND": "O=C(NC[C@]1(O)CN(Cc2ncccc2F)C[C@H]1O)c1cc[nH]n1", "INHIBITION / %": 40.4}
{"COMPOUND": "CCn1cc2c(n1)CN(Cc1ccoc1)CC2COCC1CC1 (stereo not given)", "INHIBITION / %": 9.54}
{"COMPOUND": "CCCc1nc(NCC(=O)N2CCOCC2)c2c(n1)c(C)nn2CC", "INHIBITION / %": 45.8}
{"COMPOUND": "Cn1cc(CN2C[C@@H]3OCCN(c4ncccn4)[C@@H]3C2)cn1", "INHIBITION / %": 83.5}
{"COMPOUND": "CCOCC1CN(Cc2cnn(C)c2)Cc2nn(C)cc21 (stereo not given)", "INHIBITION / %": 18.2}
{"COMPOUND": "O=S(=O)(NCC(O)c1ccoc1)c1ccc(Cl)s1 (stereo not given)", "INHIBITION / %": 46.1}
{"COMPOUND": "COCC1Cn2nnc(-c3cnn(C)c3)c2CN1Cc1cccs1 (stereo not given)", "INHIBITION / %": 2.58}
{"COMPOUND": "Cc1cc(-c2ccc(=O)n(C3CCN(C(=O)C4CC4)CC3)n2)c(C)o1", "INHIBITION / %": 23}

I need INHIBITION for every entry listed below, if you could help.
1. Fc1ccccc1CN1C[C@@H]2OCCN(c3ncccn3)[C@@H]2C1
2. COc1ccsc1C(=O)Nc1cc(CN2CCOCC2)ccc1C
3. CCn1cc2c(n1)CN(Cc1ccc(C)o1)CC2COCC1CC1 (stereo not given)
4. Cc1noc(C)c1CN1CCO[C@H]2CN(Cc3cncn3C)C[C@H]21
5. O=C(NCCc1cnccn1)C1(N2CCCCC2)Cc2ccccc2C1
6. Cc1cc(C)c(CCNC(=O)CN2CCCN(C(N)=O)CC2)c(C)c1
7. COc1cc2c(cc1CN1CCc3sccc3C1C)OCO2 (stereo not given)

Output line:
42.7
-29.4
63.7
18.5
43.7
66.6
26.7

----------
System: Plasmodium berghei
TEST METHOD NOTES: Screen against P. berghei liver stage (PbLuc), transformed with Luciferase, at 10uM
Assay type: functional, HepG2
CONDITION DETAILS: tested at 10 uM
Hit rate of the full screen: of about 69,000 compounds, about 8,600 (12%) showed an effect of 50% or more. This excerpt belongs to a sample that is enriched for strong results.
# label = Condition met if INHIBITION < 10% else Condition not met

Examples with answers:
{"COMPOUND": "Cc1nc(C2CCCN2C(=O)CCc2ccc(F)cc2)ncc1C(N)=O (centres undefined)", "ASSIGNED CATEGORY": "Condition not met"}
{"COMPOUND": "Cc1ccc(C(CNC(=O)NCc2ccccn2)N2CCOCC2)o1 (centres undefined)", "ASSIGNED CATEGORY": "Condition not met"}
{"COMPOUND": "NCc1cc(NCC(c2ccccn2)N2CCOCC2)ncn1 (centres undefined)", "ASSIGNED CATEGORY": "Condition not met"}
{"COMPOUND": "CC(C)c1nn(C)c(N2CCOCC2)c1CNC(C)c1ccccn1 (centres undefined)", "ASSIGNED CATEGORY": "Condition not met"}
{"COMPOUND": "Cc1nnc(C(C)Nc2cccc(COCCOC(C)C)c2)o1 (centres undefined)", "ASSIGNED CATEGORY": "Condition not met"}
{"COMPOUND": "COCCN(CC(C)C)C(=O)c1cccc(Nc2cnccn2)c1", "ASSIGNED CATEGORY": "Condition not met"}
{"COMPOUND": "COc1cccc(CN2CCC3(CC2)CCN(c2ncc(C)cn2)C3)c1", "ASSIGNED CATEGORY": "Condition not met"}
{"COMPOUND": "CC(C)c1nc(S(=O)(=O)N(C)c2ccc(F)cc2)c[nH]1", "ASSIGNED CATEGORY": "Condition not met"}
{"COMPOUND": "CCC(O)CN1CCN(C(=O)c2cccc(CC#N)c2)CC1 (centres undefined)", "ASSIGNED CATEGORY": "Condition met"}
{"COMPOUND": "CNc1cc(N2CCC(O)(CNC(=O)c3ccc(C)nc3)C2)ncn1 (centres undefined)", "ASSIGNED CATEGORY": "Condition not met"}

Note: attention shifts to another entry.
Input line: Determine if Cc1nn(C)c(N2CCOCC2)c1CNC(C)c1ccccn1 (centres undefined) shows INHIBITION strictly lower than 10%.
Output line: Condition not met
